# tested on: UniProt:Q8WUI4
# Sequence (Q8WUI4 whole entry): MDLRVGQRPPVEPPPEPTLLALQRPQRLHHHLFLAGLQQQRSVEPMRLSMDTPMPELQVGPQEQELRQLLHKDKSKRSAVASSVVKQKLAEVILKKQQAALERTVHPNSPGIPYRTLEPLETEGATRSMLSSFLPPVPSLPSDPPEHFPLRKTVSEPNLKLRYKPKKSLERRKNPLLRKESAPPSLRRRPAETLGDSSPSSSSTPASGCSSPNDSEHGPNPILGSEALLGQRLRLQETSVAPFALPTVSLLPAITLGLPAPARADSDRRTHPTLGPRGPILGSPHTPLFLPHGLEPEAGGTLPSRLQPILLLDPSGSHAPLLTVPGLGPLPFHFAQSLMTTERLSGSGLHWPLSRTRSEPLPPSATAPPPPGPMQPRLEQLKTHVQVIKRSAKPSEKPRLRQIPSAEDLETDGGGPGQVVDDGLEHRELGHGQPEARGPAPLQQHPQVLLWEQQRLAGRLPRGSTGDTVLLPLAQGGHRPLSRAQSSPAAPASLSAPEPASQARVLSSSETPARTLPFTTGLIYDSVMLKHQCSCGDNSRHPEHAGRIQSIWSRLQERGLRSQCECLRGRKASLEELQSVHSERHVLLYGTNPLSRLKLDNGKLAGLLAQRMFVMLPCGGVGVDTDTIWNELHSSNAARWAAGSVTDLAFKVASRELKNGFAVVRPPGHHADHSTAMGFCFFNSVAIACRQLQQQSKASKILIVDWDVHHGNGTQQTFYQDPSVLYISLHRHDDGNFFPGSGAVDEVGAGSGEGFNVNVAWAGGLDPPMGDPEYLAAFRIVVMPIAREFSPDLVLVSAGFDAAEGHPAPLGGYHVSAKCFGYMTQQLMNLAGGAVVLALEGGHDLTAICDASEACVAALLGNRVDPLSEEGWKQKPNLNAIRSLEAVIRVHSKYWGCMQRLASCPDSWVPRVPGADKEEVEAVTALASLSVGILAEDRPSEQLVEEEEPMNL
# measurement description: Inhibition of human recombinant N-terminal histidine-tagged HDAC7 expressed in baculovirus by fluorimetry
Calls of active or inactive are those of the source. The calls are words filed in the database; no cut-off is given here.
assay metric: Activity

NS(=O)(=O)NC(=O)CCCCCC(=O)Nc1cccc(-c2ccccc2)c1 | inactive
CN(C)S(=O)(=O)NCCCCCC(=O)Nc1cccc(-c2ccccc2)c1 | inactive
NS(=O)(=O)OCCCCCC(=O)Nc1cccc(-c2ccccc2)c1 | inactive

* * *

# tested on: Histone deacetylase 8 (Homo sapiens)
# measurement description: Inhibition of human recombinant N-terminal histidine-tagged HDAC8 expressed in baculovirus by fluorimetry
The source made the active and inactive calls. The calls are words filed in the database; no cut-off is given here.
assay metric: Activity

NS(=O)(=O)NCCCCCC(=O)Nc1cccc(-c2ccccc2)c1 | inactive
NS(=O)(=O)NCCCCC(=O)Nc1cccc(-c2ccccc2)c1 | inactive
NS(=O)(=O)NCCCCCCC(=O)Nc1cccc(-c2ccccc2)c1 | inactive

* * *

# tested on: Histone deacetylase 1 (Homo sapiens, UniProt Q13547)
# Sequence (Q13547 whole entry): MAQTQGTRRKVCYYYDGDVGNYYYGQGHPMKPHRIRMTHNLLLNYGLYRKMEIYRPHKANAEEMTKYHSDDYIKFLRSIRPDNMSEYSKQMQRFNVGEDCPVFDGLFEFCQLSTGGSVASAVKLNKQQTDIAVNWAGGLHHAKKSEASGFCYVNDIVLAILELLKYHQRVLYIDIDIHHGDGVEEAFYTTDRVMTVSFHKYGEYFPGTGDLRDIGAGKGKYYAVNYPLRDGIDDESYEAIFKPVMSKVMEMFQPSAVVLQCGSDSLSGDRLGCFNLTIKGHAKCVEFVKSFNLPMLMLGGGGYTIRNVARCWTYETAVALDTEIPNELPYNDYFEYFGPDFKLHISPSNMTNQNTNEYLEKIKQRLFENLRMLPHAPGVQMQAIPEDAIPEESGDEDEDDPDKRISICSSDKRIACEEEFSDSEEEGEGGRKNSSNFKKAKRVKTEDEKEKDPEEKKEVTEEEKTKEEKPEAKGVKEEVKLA
# measurement description: Inhibition of human recombinant C-terminal FLAG-tagged HDAC1 expressed in baculovirus by fluorimetry
pIC50: −log10 of the molar value.
Documented pIC50 across a set of molecules

Solved cases (4 shown):
CNS(=O)(=O)NCCCCCC(=O)Nc1cccc(-c2ccccc2)c1 | < 5.00
NS(=O)(=O)NCCCCCC(=O)Nc1ccccc1 | < 5.00
NS(=O)(=O)NCCCCCC(=O)Nc1cccc(-c2ccccc2)c1 | < 5.00
COc1cc(NC(=O)CCCCCNS(N)(=O)=O)c2ncccc2c1 | < 5.00

**Q:** Requested field: pIC50. Item: NS(=O)(=O)NCCCCCCC(=O)Nc1cccc(-c2ccccc2)c1
**A:** < 5.00

**Q:** Requested field: pIC50. Item: COc1cc(NC(=O)[C@H](CCCCNS(N)(=O)=O)NC(=O)OCc2ccccc2)c2ncccc2c1
**A:** 6.34

* * *

# tested on: UniProt:Q9UBN7
# Sequence (Q9UBN7 whole entry): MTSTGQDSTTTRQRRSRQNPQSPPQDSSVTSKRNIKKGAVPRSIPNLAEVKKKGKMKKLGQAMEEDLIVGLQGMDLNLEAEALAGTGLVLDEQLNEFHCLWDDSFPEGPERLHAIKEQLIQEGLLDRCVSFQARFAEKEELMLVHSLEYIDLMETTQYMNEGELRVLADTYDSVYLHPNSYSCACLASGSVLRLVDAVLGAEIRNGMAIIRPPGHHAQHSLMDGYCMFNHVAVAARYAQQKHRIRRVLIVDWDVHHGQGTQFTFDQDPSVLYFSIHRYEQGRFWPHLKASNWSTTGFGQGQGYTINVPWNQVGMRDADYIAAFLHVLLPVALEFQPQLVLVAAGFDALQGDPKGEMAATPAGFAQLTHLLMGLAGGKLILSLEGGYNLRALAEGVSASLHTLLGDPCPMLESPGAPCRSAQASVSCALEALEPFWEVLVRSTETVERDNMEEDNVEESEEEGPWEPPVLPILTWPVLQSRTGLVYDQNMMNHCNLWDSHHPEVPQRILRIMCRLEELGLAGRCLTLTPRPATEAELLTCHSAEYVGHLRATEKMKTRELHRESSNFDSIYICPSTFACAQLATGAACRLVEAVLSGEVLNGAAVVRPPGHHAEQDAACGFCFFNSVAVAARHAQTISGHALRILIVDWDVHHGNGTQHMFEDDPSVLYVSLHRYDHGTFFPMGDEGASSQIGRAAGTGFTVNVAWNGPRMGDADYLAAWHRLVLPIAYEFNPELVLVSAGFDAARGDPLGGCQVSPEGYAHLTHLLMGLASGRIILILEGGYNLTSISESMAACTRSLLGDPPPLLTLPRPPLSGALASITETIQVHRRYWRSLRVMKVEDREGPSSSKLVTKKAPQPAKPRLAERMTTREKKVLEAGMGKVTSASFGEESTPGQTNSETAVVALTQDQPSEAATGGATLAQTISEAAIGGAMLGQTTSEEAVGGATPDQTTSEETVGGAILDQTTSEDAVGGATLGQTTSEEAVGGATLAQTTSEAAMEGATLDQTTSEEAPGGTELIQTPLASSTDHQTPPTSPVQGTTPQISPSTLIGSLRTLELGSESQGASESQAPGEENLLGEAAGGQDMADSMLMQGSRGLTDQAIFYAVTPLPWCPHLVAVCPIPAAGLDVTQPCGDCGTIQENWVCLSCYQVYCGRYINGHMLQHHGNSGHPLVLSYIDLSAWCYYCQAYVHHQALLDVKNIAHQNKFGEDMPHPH
# measurement description: Inhibition of human recombinant N-terminal histidine-tagged HDAC6 expressed in baculovirus by fluorimetry
Please assign False whenever IC50 is at or above 400 nM, and True whenever it is below.

Worked cases, answers included:
CN(C)S(=O)(=O)NCCCCCC(=O)Nc1cccc(-c2ccccc2)c1 | False
NS(=O)(=O)NCCCC[C@H](NC(=O)OCc1ccccc1)C(=O)Nc1nc(-c2ccccc2)cs1 | True
NS(=O)(=O)NCCCCC(=O)Nc1cccc(-c2ccccc2)c1 | False
NS(=O)(=O)NCCCCCC(=O)Nc1cccc(-c2ccccc2)c1 | False
NS(=O)(=O)NCCCCCC(=O)Nc1nc(-c2ccccc2)cs1 | False

**Q:** Is 400 nM strictly greater than the molecule's reported IC50? molecule: Nc1ccccc1NC(=O)CCCCCCC(=O)Nc1cccc(-c2ccccc2)c1
**A:** False

**Q:** Is 400 nM strictly greater than the molecule's reported IC50? molecule: CNS(=O)(=O)NCCCCCC(=O)Nc1cccc(-c2ccccc2)c1
**A:** False

**Q:** Is 400 nM strictly greater than the molecule's reported IC50? molecule: CC(=O)NS(=O)(=O)NCCCCCC(=O)Nc1cccc(-c2ccccc2)c1
**A:** False

**Q:** Is 400 nM strictly greater than the molecule's reported IC50? molecule: COc1cc(NC(=O)[C@H](CCCCNS(N)(=O)=O)NC(=O)OCc2ccccc2)c2ncccc2c1
**A:** True

Where do the numbers come from? From ChEMBL document CHEMBL1149076.
